Origin of measurements: the RNAGym collection of RNA variant scans (doi:10.1093/molbev/msab373)

Exercise: state measured reverse-splicing fitness for each of the variants provided.
B1: Azoarcus group I ribozyme (parent)
chain: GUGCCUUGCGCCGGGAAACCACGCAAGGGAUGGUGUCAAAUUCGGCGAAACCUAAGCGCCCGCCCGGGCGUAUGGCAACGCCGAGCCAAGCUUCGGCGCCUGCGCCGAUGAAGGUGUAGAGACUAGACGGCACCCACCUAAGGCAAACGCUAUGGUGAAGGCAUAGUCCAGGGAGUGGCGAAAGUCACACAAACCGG

variants of: B1; assay: reverse-splicing fitness (ratio to wild type); higher = more active; in vitro selection; Mg2+ level not given

Ask: Look up reverse-splicing fitness for this variant: C82G A111C A145G C150G C169G U176A
Result: 0.00869

Ask: So what's the measured reverse-splicing fitness for this one? C82G A111G A120G A145U C150U C169G
Result: 0.0148

Ask: Dear colleague, I am looking for the recorded reverse-splicing fitness of the following variant: C82G A111G A120U C150U
Result: 0.0348

Ask: Can you share its reverse-splicing fitness? I mean this variant: C82G A145G C150U C169U U176C
Result: 0.015

Ask: Given A111G A120U A145G C169U , state its recorded reverse-splicing fitness.
Result: 0.126

Ask: reverse-splicing fitness for C82G A111U A120U A145C C169G ?
Result: 0.00383

Ask: Recorded reverse-splicing fitness of C82A A120U , please.
Result: 0.154

Ask: Could you share which reverse-splicing fitness value was measured for A111C A120U A145C C150U U176C ?
Result: 0.0487

Ask: Record request: reverse-splicing fitness value, item C82A A120U A145C C150G U176C
Result: 0.00832

Ask: # lookup: reverse-splicing fitness of C82G A111G A120U U176C
Result: 0.0294

Ask: Fill in the blank: the reported reverse-splicing fitness of C82G A120G A145U C150G C169U is ____.
Result: 0.01

Ask: Using the record for C82G A111G A120C A145C C150A C169A , report its reverse-splicing fitness.
Result: 0.00953

Ask: Entry C82A A111C A120C A145U C150A : reported reverse-splicing fitness = ?
Result: 0.00979

Ask: Need reverse-splicing fitness of A111U A120G A145C C150G C169U U176A , thanks.
Result: 0.0163

Ask: I have this variant here, C82G A111C A120U C169A U176A , and I need its recorded reverse-splicing fitness.
Result: 0.00425

Ask: Bench note: what reverse-splicing fitness did A111G A145C C150A C169A U176A show?
Result: 0.0101

Ask: Can you look up the measured reverse-splicing fitness of C82U A111C C150A U176C for me?
Result: 0.0276

Ask: // query reverse-splicing fitness value for entry A111C A120G A145C C150U C169G U176G
Result: 0.00474

Ask: Look at this variant and give its reported reverse-splicing fitness. C82G A120U A145C C150U C169G U176A
Result: 0.00262

Ask: Given the entry A120U A145U C150U U176G , report its measured reverse-splicing fitness.
Result: 0.206

Ask: I would be grateful if you could share the reported reverse-splicing fitness for A120U C150G U176C .
Result: 0.115

Ask: Entry under review: C82U A111U A120U A145C C150G C169U U176G . Reported reverse-splicing fitness?
Result: 0.00218

Ask: Item under review: C82G A120U A145G C150G C169A U176C . Reported reverse-splicing fitness?
Result: 0.00809

Ask: Would you mind telling me what reverse-splicing fitness value was observed for C82U A111G A120C A145U C150G C169G U176C ?
Result: 0.00388

Ask: reverse-splicing fitness for C82U A111C A120C A145U C150U ?
Result: 0.0199

Ask: // lookup reverse-splicing fitness for A111G A120U A145U C150A C169U U176G
Result: 0.00172

Ask: State the recorded reverse-splicing fitness for this entry: A111U A120C A145C C150A C169G U176C
Result: 0.00889

Ask: Entry under review: A111C A145G C150G C169A . Reported reverse-splicing fitness?
Result: 0.00939

Ask: What measured reverse-splicing fitness goes with C82U A120U A145C C169U ?
Result: 0.00535

Ask: What value of reverse-splicing fitness has been reported for the following variant? C82U A120C C150U C169A U176C
Result: 0.0107

Ask: Fill blank: measured reverse-splicing fitness of the variant C82A A120G A145C C150U C169U is ____.
Result: 0.00958

Ask: Would you mind telling me what reverse-splicing fitness value was observed for A120G A145U C169A U176G ?
Result: 0.00923

Ask: Tell me the measured reverse-splicing fitness of C82A A111G A145U C169A U176G , please.
Result: 0.00504

Ask: Can you look up the measured reverse-splicing fitness of C82A A111C C150G for me?
Result: 0.016

Ask: Return reported reverse-splicing fitness; argument: C82A A111C A145G C169G U176A
Result: 0.0221

Ask: Find the recorded reverse-splicing fitness belonging to C82U A111U A120G C150U and report it.
Result: 0.0114

Ask: Could you tell me which reverse-splicing fitness is on file for C82G A120G A145G C150G C169U U176G ?
Result: 0.00717

Ask: Any idea what reverse-splicing fitness was measured for C82U A111C A120G A145U C150U ?
Result: 0.0111

Ask: Field request: reverse-splicing fitness | item: C82U C169A U176A
Result: 0.0127

Ask: Would you mind telling me what reverse-splicing fitness value was observed for C82G A120U A145U C150A ?
Result: 0.0151

Ask: reverse-splicing fitness lookup needed for C82U A111G A120C A145C C150A C169A , thanks.
Result: 0.00689

Ask: Which measured reverse-splicing fitness value corresponds to A111C A120C C150G C169U U176A ?
Result: 0.00759

Ask: Param item = C82U A111C A145U C169A U176C ; retrieve measured reverse-splicing fitness.
Result: 0.0139

Ask: For the variant C82A C150U C169U U176C , what reverse-splicing fitness is on record?
Result: 0.016

Ask: Quick one: reverse-splicing fitness of A111U A120G C150U C169A U176A ?
Result: 0.0189

Ask: Need reverse-splicing fitness of C82U A111C A120C A145G C169G U176G , thanks.
Result: 0.0058

Ask: Fill blank: measured reverse-splicing fitness of the variant C82U A111C A145G C150A C169U U176C is ____.
Result: 0.0157

Ask: Quick check: reverse-splicing fitness of A111U A120U C169A U176G ?
Result: 0.00214

Ask: // lookup reverse-splicing fitness for C82U A111U A120G A145C C150G C169G U176G
Result: 0.00424

Ask: Dear colleague, I am looking for the recorded reverse-splicing fitness of the following variant: C82A A111G A120C A145C C150G C169U U176A
Result: 0.00566

Ask: Data request, read-out reverse-splicing fitness, for C82G A111U A120G A145G C150U C169U U176C
Result: 0.0151

Ask: Name the reported reverse-splicing fitness value associated with the variant A111C A145C C150U C169G U176A
Result: 0.0249

Ask: So what's the measured reverse-splicing fitness for this one? C82A A111G A120G A145C C169A
Result: 0.00912

Ask: I would be grateful if you could share the reported reverse-splicing fitness for C82U A111C A120C A145G C169A U176C .
Result: 0.0232

Ask: Please look up its reverse-splicing fitness: C82U A111G A120C A145G C150A C169A
Result: 0.00928

Ask: reverse-splicing fitness lookup needed for C82G A111U A120C C150A C169A U176C , thanks.
Result: 0.0217

Ask: Look up reverse-splicing fitness for this variant: C82G A111G A120U A145U C150U C169U
Result: 0.00393

Ask: // lookup reverse-splicing fitness for C82G A111G A120C A145U C169U U176A
Result: 0.0129

Ask: I would be grateful if you could share the reported reverse-splicing fitness for C82G A111U A145C C150U C169A U176C .
Result: 0.00701

Ask: Field request: reverse-splicing fitness | item: C82G A111C A120C U176G
Result: 0.00944

Ask: Look at this variant and give its reported reverse-splicing fitness. C82A A111G A120U A145G C150G C169G U176A
Result: 0.00925

Ask: What measured reverse-splicing fitness goes with C82G A111G A120U A145U C169A ?
Result: 0.00239

Ask: Sample C82G A111C A120G C150G — what was its reverse-splicing fitness?
Result: 0.00691

Ask: Can you share its reverse-splicing fitness? I mean this variant: A111C A120C C169U U176G
Result: 0.0068
